Just for reference, BindingDB's records for doi:10.1021/acsmedchemlett.0c00095 is where these values come from.

Would you kindly list log10 IC50 for each of these compounds?
Molecular target: Phosphatidylinositol 3-kinase regulatory subunit alpha/4,5-bisphosphate 3-kinase catalytic subunit beta isoform (Homo sapiens, UniProt P27986+P42338)
Sequence (P27986 whole entry, canonical isoform): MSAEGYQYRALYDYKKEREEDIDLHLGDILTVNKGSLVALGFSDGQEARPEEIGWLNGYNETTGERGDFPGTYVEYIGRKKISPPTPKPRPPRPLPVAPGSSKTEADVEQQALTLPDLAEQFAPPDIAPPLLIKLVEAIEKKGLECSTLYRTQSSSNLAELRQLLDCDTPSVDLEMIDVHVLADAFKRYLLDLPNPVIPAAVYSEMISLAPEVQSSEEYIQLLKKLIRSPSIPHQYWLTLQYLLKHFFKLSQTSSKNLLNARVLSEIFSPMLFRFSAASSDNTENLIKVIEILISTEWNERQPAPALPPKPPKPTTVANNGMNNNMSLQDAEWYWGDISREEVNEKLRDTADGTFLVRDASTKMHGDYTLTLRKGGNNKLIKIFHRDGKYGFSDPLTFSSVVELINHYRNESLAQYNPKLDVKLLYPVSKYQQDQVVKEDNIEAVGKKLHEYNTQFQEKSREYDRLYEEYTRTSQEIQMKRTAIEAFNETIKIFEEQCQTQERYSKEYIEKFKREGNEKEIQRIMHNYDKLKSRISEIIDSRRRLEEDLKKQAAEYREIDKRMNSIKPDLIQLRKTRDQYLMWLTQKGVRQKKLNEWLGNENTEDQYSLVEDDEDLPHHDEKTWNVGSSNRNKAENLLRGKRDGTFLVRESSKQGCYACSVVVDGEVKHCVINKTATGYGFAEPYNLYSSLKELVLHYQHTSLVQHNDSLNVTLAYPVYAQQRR
Sequence (P42338 whole entry, canonical isoform): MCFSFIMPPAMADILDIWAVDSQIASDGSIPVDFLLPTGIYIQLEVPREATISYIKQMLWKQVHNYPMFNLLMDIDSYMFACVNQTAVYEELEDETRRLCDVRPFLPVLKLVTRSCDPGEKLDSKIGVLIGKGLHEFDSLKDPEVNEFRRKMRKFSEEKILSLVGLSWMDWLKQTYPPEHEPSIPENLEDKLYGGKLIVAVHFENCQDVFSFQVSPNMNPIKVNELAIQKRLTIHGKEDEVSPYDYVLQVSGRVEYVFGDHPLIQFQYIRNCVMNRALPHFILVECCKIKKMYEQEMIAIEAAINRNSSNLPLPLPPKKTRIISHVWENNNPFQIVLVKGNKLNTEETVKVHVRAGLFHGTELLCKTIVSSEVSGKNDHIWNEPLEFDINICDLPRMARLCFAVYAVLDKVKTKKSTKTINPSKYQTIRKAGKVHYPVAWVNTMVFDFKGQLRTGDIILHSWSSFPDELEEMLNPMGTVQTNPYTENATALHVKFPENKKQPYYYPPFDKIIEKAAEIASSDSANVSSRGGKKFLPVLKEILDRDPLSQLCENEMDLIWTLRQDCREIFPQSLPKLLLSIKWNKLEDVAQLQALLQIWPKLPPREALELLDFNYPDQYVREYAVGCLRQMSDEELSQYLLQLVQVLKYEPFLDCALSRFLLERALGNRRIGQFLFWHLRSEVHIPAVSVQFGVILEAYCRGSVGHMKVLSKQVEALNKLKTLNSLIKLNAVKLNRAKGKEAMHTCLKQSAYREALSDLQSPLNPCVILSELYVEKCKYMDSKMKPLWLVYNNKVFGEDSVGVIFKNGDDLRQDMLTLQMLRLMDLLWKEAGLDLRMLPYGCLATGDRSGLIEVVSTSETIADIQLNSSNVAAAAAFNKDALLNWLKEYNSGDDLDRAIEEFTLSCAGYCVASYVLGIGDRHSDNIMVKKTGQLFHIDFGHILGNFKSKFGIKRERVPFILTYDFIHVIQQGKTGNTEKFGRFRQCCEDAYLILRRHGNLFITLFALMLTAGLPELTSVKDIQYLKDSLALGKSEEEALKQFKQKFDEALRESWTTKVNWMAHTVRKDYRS
Assay: Inhibition of recombinant human full-length N-terminal His6-tagged p110beta/human recombinant full-length untagged p85alpha expressed in baculovirus infected Sf21 insect cells using PIP2 as substrate after 30 mins in presence of ATP at 2xKm concentration by TR-FRET assay
Log10 applied to IC50; unit prior to transform: nM.

Entry Cc1nc2c(-c3nnc[nH]3)cc(-c3ccncc3)cc2n1-c1ccnc2c(F)ccc(F)c12 : reported log10 IC50 = ? 0.78

Would you mind doing Cc1nc2c(-c3nnc[nH]3)cc(-c3ccnc(N)c3Cl)cc2n1-c1ccnc2c(F)ccc(F)c12 as well? 1.28

Would you mind doing Cc1cc(-c2cc(-c3nnc[nH]3)c3nc(C)n(-c4ccnc5c(F)ccc(F)c45)c3c2)cc(N)n1 as well? 2.53

Would you mind doing Cc1nc2c(-c3nnc[nH]3)cc(-c3ccnc(Cl)c3)cc2n1-c1ccnc2c(F)ccc(F)c12 as well? 0.85

Would you mind doing Cc1nc2c(-c3nnc[nH]3)cc(-c3ccnc(C(F)F)c3)cc2n1-c1ccnc2c(F)ccc(F)c12 as well? 1.48

Would you mind doing Clc1cccc2c(-n3cnc4c(-c5nnc[nH]5)cc(N5CCOCC5)cc43)ccnc12 as well? 0.48

Would you mind doing Cc1nc2c(-c3nnc[nH]3)cc(-c3c(F)cnc(N)c3F)cc2n1-c1ccnc2c(F)ccc(F)c12 as well? 2.51
